Sourced from patent US5214037A

- methodNotes: Blood level at 15 minutes after oral administration to mice
- Format: in vivo, mouse
- conditionDetails: mouse, blood, 40 mg/kg oral
Where a name gives a salt, the structure may show the parent alone.
assayEndpoint: concentration at 0.25 h (ng/mL)

# compound, assayEndpoint, quantitativeReadout
records = [
    ("Nc1nc(/C(=N/O)C(=O)N[C@@H]2C(=O)N3C(C(=O)O)=C(SCSc4c[nH]nn4)CS[C@H]23)cs1 [Example 7-5]", "concentration at 0.25 h", 29600),
]

[I] O=C(CSC(F)F)N[C@@H]1C(=O)N2C(C(=O)O)=C(SCSc3c[nH]nn3)CS[C@H]12 [Example 7-1]
[II] CO/N=C(\C(=O)N[C@@H]1C(=O)N2C(C(=O)O)=C(SCSc3c[nH]nn3)CS[C@H]12)c1csc(N)n1 [Example 7-6, sodium salt]
Larger number for concentration at 0.25 h: I , or II ? Reply briefly: the label of your chosen item.
I
(I: 28000 ng/mL, II: 15000 ng/mL)

----------
- methodNotes: Blood level at 15 minutes after oral administration to mice
- Assay type: in vivo, mouse
- conditionDetails: mouse, blood, 40 mg/kg oral
assayEndpoint: concentration at 0.25 h (ng/mL)

# compound, concentration at 0.25 h / ng/mL
records = [
    ("O=C(Cc1ccccc1)N[C@@H]1C(=O)N2C(C(=O)O)=C(SCSc3c[nH]nn3)CS[C@H]12 [Example 7-2]", 15000),
    ("Nc1nc(/C(=N/O)C(=O)N[C@@H]2C(=O)N3C(C(=O)O)=C(SCSc4ccccn4)CS[C@H]23)cs1 [Example 7-30]", 18700),
    ("Nc1nc(/C(=N/O)C(=O)N[C@@H]2C(=O)N3C(C(=O)O)=C(SCSCc4c[nH]nn4)CS[C@H]23)cs1 [Example 6-1]", 12100),
    ("O=C(O)C1=C(SCSc2c[nH]nn2)CS[C@@H]2[C@H](NC(=O)[C@H](O)c3ccccc3)C(=O)N12 [Example 7-3]", 18500),
    ("Nc1nc(CC(=O)N[C@@H]2C(=O)N3C(C(=O)O)=C(SCSc4c[nH]nn4)CS[C@H]23)cs1 [Example 7-10]", 17100),
]
